pIC50 reference
Biological target: IRAK4 (Homo sapiens (Human))
pIC50: −log10 of the molar value.

{"compound": "Cn1cc(-c2cccc(-c3ncc(-c4cnn(C)c4)c(N[C@H]4C[C@@H](N)C4)n3)c2)cn1 [Example 62]", "observed-property": "pIC50", "recorded-result": "6.00 to 7.00"}
{"compound": "Cn1cc(-c2cccc(-c3ncc(-c4cnn(C)c4)c(N[C@H]4CCC[C@H](O)C4)n3)c2)cn1 (racemic) [Example 162]", "observed-property": "pIC50", "recorded-result": "> 7.00"}
{"compound": "Cn1cc(-c2cccc(-c3ncc(-c4cnn(C)c4)c(N[C@H]4CCCC[C@@H](O)[C@H]4O)n3)c2)cn1 [Example 288]", "observed-property": "pIC50", "recorded-result": "> 7.00"}
{"compound": "Cn1cc(-c2cccc(-c3ncc(-c4ccn(C)n4)c(NCCCN4CCOC4=O)n3)c2)cn1 [Example 67]", "observed-property": "pIC50", "recorded-result": "6.00 to 7.00"}

Could you now look at the following compound, please?
Entry Cn1cc(-c2cccc(-c3ncc(-c4cnn(C)c4)c(NC4CC5CCC4N5S(C)(=O)=O)n3)c2)cn1 (centres unmarked) [Example 199] , system IRAK4 (Homo sapiens (Human)): what pIC50 was measured? > 7.00

---

Target: IRAK4 (Homo sapiens (Human), UniProt Q9NWZ3)
Sequence (Q9NWZ3 whole entry): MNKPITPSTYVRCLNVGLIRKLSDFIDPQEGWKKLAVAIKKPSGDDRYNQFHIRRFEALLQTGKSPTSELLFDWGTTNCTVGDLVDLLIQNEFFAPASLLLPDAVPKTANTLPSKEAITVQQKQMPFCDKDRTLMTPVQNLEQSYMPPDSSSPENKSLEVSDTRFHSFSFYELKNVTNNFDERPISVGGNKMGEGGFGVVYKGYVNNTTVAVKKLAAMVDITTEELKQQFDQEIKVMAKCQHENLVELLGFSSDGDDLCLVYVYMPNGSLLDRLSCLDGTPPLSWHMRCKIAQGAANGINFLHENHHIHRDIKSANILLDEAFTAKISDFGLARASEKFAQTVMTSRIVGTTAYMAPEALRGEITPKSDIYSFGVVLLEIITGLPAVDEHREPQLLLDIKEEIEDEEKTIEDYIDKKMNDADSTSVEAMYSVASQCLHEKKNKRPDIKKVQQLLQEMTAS
pIC50: −log10 of the molar value. Where a name gives a salt, the structure may show the parent alone.
Parameter: pIC50. Scope: all listed entries.

{"compound": "Cn1cc(-c2cccc(-c3ncc(-c4ccn(C)n4)c(NCC4CCNC(=O)C4)n3)c2)cn1 (stereo not drawn)", "pIC50": "6.00 to 7.00"}
{"compound": "Cn1cc(-c2cccc(-c3ncc(-c4ccn(C)n4)c(NCCCC(C)(C)O)n3)c2)cn1", "pIC50": "6.00 to 7.00"}
{"compound": "Cn1cc(-c2cccc(-c3ncc(-c4ccn(C)n4)c(NCCO)n3)c2)cn1", "pIC50": "6.00 to 7.00"}
{"compound": "Cn1cc(-c2cccc(-c3ncc(-c4cnn(C)c4)c(NCCN4CCCC4=O)n3)c2)cn1", "pIC50": "5.30 to 6.00"}
{"compound": "Cc1nnc(-c2cnc(-c3cccc(-c4cnn(C)c4)c3)nc2N[C@H]2CC[C@H](NS(C)(=O)=O)CC2)s1", "pIC50": "> 7.00"}

Would you mind telling me what pIC50 value was observed for `Cn1cc(-c2cccc(-c3ncc(-c4cnn(C)c4)c(OCC4COC4)n3)c2)cn1` ? 6.00 to 7.00

Now the same for Cn1cc(-c2cccc(-c3ncc(-c4cnn(C)c4)c(N[C@@H]4CCC[C@@H](F)[C@@H]4O)n3)c2)cn1 (single isomer, unassigned) > 7.00

Moving on to the next compound: Cc1nnc(-c2cnc(-c3cccc(-c4cnn(C)c4)c3)nc2NC2CCCNC2)s1 (stereo not drawn) [Example 17, Hydrochloride] > 7.00

Record: `Cn1cc(-c2cccc(-c3ncc(-c4cnn(C)c4)c(NCC4COC4)n3)c2)cn1` > 7.00

---

Molecular target: IRAK1 (His-TEV-IRAK1 (194-712)) (Homo sapiens (Human), UniProt P51617)
Sequence (P51617 194-712): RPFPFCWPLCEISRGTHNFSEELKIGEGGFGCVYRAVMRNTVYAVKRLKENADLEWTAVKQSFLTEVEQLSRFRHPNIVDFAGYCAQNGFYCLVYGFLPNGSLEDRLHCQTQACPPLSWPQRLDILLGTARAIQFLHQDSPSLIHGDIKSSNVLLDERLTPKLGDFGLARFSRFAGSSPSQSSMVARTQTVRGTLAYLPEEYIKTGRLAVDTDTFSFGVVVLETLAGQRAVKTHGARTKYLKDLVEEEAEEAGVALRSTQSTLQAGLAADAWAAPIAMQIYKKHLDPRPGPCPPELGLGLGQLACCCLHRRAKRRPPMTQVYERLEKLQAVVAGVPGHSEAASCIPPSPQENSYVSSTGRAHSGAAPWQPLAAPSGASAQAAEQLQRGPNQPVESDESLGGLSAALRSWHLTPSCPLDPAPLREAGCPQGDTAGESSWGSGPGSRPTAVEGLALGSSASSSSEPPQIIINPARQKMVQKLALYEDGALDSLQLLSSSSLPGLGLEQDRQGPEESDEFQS
pIC50: −log10 of the molar value.
observed-property: pIC50

Example cases with answers are listed next.
{"compound": "Cn1cc(-c2cccc(-c3ncc(-c4cnn(C)c4)c(N[C@H]4C[C@H](CNS(C)(=O)=O)C4)n3)c2)cn1 [Example 196]", "system-name": "IRAK1 (His-TEV-IRAK1 (194-712)) (Homo sapiens (Human), UniProt P51617)", "pIC50": "6.00 to 7.00"}
{"compound": "Cn1cc(-c2cccc(-c3ncc(-c4cnn(C)c4)c(NC[C@@H]4CCC(=O)N4)n3)c2)cn1 [Example 61]", "system-name": "IRAK1 (His-TEV-IRAK1 (194-712)) (Homo sapiens (Human), UniProt P51617)", "pIC50": "< 5.30"}
{"compound": "Cn1cc(-c2cccc(-c3ncc(-c4cnn(C)c4)c(NC45CCC(N)(CC4)CC5)n3)c2)cn1 [Example 186]", "system-name": "IRAK1 (His-TEV-IRAK1 (194-712)) (Homo sapiens (Human), UniProt P51617)", "pIC50": "> 7.00"}
{"compound": "Cn1cc(-c2cccc(-c3ncc(-c4ccn(C)n4)c(NC[C@H]4CCNC[C@H]4O)n3)c2)cn1 (racemic) [Example 116]", "system-name": "IRAK1 (His-TEV-IRAK1 (194-712)) (Homo sapiens (Human), UniProt P51617)", "pIC50": "< 5.30"}
{"compound": "Cn1cc(-c2cccc(-c3ncc(-c4cnn(C)c4)c(N4CCC[C@H]4CO)n3)c2)cn1 [Example 230]", "system-name": "IRAK1 (His-TEV-IRAK1 (194-712)) (Homo sapiens (Human), UniProt P51617)", "pIC50": "< 5.30"}
{"compound": "Cn1cc(-c2cccc(-c3ncc(-c4cnn(C)c4)c(NCCC4CCCCN4S(C)(=O)=O)n3)c2)cn1 (centres unmarked) [Example 259]", "system-name": "IRAK1 (His-TEV-IRAK1 (194-712)) (Homo sapiens (Human), UniProt P51617)", "pIC50": "< 5.30"}

Here is the next item to consider.
// fetch IRAK1 (His-TEV-IRAK1 (194-712)) (Homo sapiens (Human), UniProt P51617) pIC50 for Cn1cc(-c2cccc(-c3ncc(-c4ccn(C)n4)c(NCCN4CCCC4=O)n3)c2)cn1 [Example 70] 6.00 to 7.00

---

Biological target: UniProtKB Q9NWZ3
Test: IRAK4 enzymatic assay
Assay type: biochemical
IC50 values by entry

Worked set:
{"smiles-record": "Cn1cc(-c2cccc(-c3ncc(-c4cnn(C)c4)c(NCC4(CO)CCC4)n3)c2)cn1", "IC50": "< 100 nM"}
{"smiles-record": "Cn1cc(-c2cccc(-c3ncc(-c4cnn(C)c4)c(N[C@H]4CC[C@H](N)C4)n3)c2)cn1", "IC50": "< 100 nM"}
{"smiles-record": "Cn1cc(-c2cccc(-c3ncc(-c4cnn(C)c4)c(N[C@@H]4CCCC(F)(F)[C@H]4O)n3)c2)cn1", "IC50": "< 100 nM"}
{"smiles-record": "Cn1cc(-c2cccc(-c3ncc(-c4cnn(C)c4)c(NCCN4CCC(O)CC4)n3)c2)cn1", "IC50": "1000 to 5000 nM"}
{"smiles-record": "Cn1cc(-c2cccc(-c3ncc(-c4cnn(C)c4)c(NCCC4(O)CCCC4)n3)c2)cn1", "IC50": "< 100 nM"}

Data request, read-out IC50, for `Cn1cc(-c2cccc(-c3ncc(-c4ccn(C)n4)c(NCCN4CCOCC4)n3)c2)cn1` 100 to 1000 nM

# repeat for `Cn1cc(-c2cccc(-c3ncc(-c4cnn(C)c4)c(NCC4CCC4)n3)c2)cn1` < 100 nM

Likewise for `Cn1cc(-c2cccc(-c3ncc(-c4cnn(C)c4)c(NCCS(N)(=O)=O)n3)c2)cn1` ? < 100 nM

And what about the compound `Cn1cc(-c2cccc(-c3ncc(-c4ccn(C)n4)c(NCCN4CCCC4=O)n3)c2)cn1` ? 1000 to 5000 nM

Another: `Cn1cc(-c2cccc(-c3ncc(-c4ccn(C)n4)c(NCC4CC(F)(F)C4)n3)c2)cn1` 100 to 1000 nM

Note, next up: `Cn1cc(-c2cccc(-c3ncc(-c4cnn(C)c4)c(NCC4(NS(C)(=O)=O)CCCCC4)n3)c2)cn1` < 100 nM

Please answer likewise for `Cn1cc(-c2cccc(-c3ncc(-c4cnn(C)c4)c(N4CCC(O)CC4)n3)c2)cn1` < 100 nM

---

// endpoint pIC50 / system IRAK1 (His-TEV-IRAK1 (194-712)) (Homo sapiens (Human), UniProt P51617)
pIC50: −log10 of the molar value.

Consider the reported pIC50 for these compounds:
{"compound": "Cn1cc(-c2cccc(-c3ncc(-c4cnn(C)c4)c(N[C@@H]4CCC[C@@H](F)[C@@H]4O)n3)c2)cn1 (single isomer, unassigned)", "pIC50": "6.00 to 7.00"}
{"compound": "Cn1cc(-c2cccc(-c3ncc(-c4ccn(C)n4)c(O[C@@H]4CCC[C@@H](N)[C@@H]4O)n3)c2)cn1", "pIC50": "6.00 to 7.00"}
{"compound": "Cc1nnc(-c2cnc(-c3cccc(-c4cnn(C)c4)c3)nc2NC2CCCN(S(C)(=O)=O)CC2)s1 (stereo not shown)", "pIC50": "> 7.00"}

# input for lookup
Recorded pIC50 for `Cn1cc(-c2cccc(-c3ncc(-c4cnn(C)c4)c(N[C@H]4CCC[C@H](O)[C@@H]4O)n3)c2)cn1` , please? 6.00 to 7.00
